Target: human cholecystokinin-1 receptor (CCK-1R) (Homo sapiens, UniProt P32238)
Construct: host or cells: 1321-N1 cells
Sequence (P32238 1-428): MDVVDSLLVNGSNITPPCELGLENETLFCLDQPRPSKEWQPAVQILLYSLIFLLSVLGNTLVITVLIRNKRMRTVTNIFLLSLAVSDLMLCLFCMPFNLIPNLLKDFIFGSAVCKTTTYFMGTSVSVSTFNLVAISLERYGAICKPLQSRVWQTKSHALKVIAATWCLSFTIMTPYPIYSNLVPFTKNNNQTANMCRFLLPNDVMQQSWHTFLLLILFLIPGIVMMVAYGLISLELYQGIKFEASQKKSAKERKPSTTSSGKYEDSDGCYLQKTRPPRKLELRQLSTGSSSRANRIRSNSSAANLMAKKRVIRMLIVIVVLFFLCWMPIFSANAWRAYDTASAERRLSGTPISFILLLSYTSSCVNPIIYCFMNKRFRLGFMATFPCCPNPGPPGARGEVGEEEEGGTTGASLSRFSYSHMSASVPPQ
Experiment: In vitro potency on CCK-1R, whole cell functional assay (IP1 accumulation, IP-One HTRF)
Assay type: cell-based
Conditions: 1321-N1 cells stably expressing CCK-1R; IP1 accumulation; average of min. three replicates; read-out: EC50 (CCK-1R)
Starred links: 1 amine or outer side, 2 acyl side, 3 side chain; linkers in the order of their positions; H or OH if unused. Non-standard residues stand in square brackets, D forms with d. Residues, ends and D or L forms follow the SMILES beside them. *: point of attachment. Phe(4-CH2SO3H) = N[C@@H](Cc1ccc(CS(=O)(=O)O)cc1)C(=O)O; sY = N[C@@H](Cc1ccc(OS(=O)(=O)O)cc1)C(=O)O; C18 diacid = O=C(O)CCCCCCCCCCCCCCCCC(=O)*; γGlu = O=C(O)[C@H](CCC(=O)[*:2])N[*:1]; 1Nal = N[C@@H](Cc1cccc2ccccc12)C(=O)O; C14 diacid = O=C(O)CCCCCCCCCCCCC(=O)*; Met(O2) = CS(=O)(=O)CC[C@H](N)C(=O)O; NMeF = CN[C@@H](Cc1ccccc1)C(=O)O; dNMeD = CN[C@H](CC(=O)O)C(=O)O; Nle = CCCC[C@H](N)C(=O)O; AEEA = NCCOCCOCC(=O)O
Listed next: entries and their corresponding EC50.
readoutKind: EC50 (nM)

CCCC[C@H](NC(=O)[C@H](Cc1c[nH]c2ccccc12)NC(=O)CNC(=O)[C@H](CC(C)C)NC(=O)[C@H](Cc1ccc(OS(=O)(=O)O)cc1)NC(=O)[C@@H](N)CCC(=O)O)C(=O)N(C)[C@H](CC(=O)O)C(=O)N(C)[C@@H](Cc1ccccc1)C(N)=O [Example 77] (H-E[sY]LGW[Nle][dNMeD][NMeF]-NH2)	0.21
CCCC[C@H](NC(=O)[C@H](Cc1c[nH]c2ccccc12)NC(=O)CNC(=O)[C@H](CC(C)C)NC(=O)[C@H](Cc1ccc(CS(=O)(=O)O)cc1)NC(=O)[C@H](CC(=O)O)NC(=O)COCCOCCNC(=O)COCCOCCNC(=O)CC[C@H](NC(=O)CCCCCCCCCCCCC(=O)O)C(=O)O)C(=O)N(C)[C@H](CC(=O)O)C(=O)N(C)[C@@H](Cc1ccccc1)C(N)=O [Example 34] ({C14 diacid-γGlu-AEEA-AEEA}-D[Phe(4-CH2SO3H)]LGW[Nle][dNMeD][NMeF]-NH2)	0.21
CCCC[C@H](NC(=O)[C@H](Cc1c[nH]c2ccccc12)NC(=O)CNC(=O)[C@H](C)NC(=O)[C@H](Cc1ccc(OS(=O)(=O)O)cc1)NC(=O)[C@@H](N)CC(=O)O)C(=O)N(C)[C@H](CC(=O)O)C(=O)N(C)[C@@H](Cc1ccccc1)C(N)=O [Example 80] (H-D[sY]AGW[Nle][dNMeD][NMeF]-NH2)	0.16
CC(C)C[C@H](NC(=O)[C@H](Cc1ccc(OS(=O)(=O)O)cc1)NC(=O)[C@H](CC(=O)O)NC(=O)COCCOCCNC(=O)COCCOCCNC(=O)CC[C@H](NC(=O)CCCCCCCCCCCCCCCCC(=O)O)C(=O)O)C(=O)NCC(=O)N[C@@H](Cc1c[nH]c2ccccc12)C(=O)N[C@@H](CCS(C)(=O)=O)C(=O)N(C)[C@H](CC(=O)O)C(=O)N(C)[C@@H](Cc1ccccc1)C(N)=O [Example 12] ({C18 diacid-γGlu-AEEA-AEEA}-D[sY]LGW[Met(O2)][dNMeD][NMeF]-NH2)	0.14
CCCC[C@H](NC(=O)[C@H](Cc1ccc(OS(=O)(=O)O)cc1)NC(=O)[C@@H](N)CC(=O)O)C(=O)NCC(=O)N[C@@H](Cc1c[nH]c2ccccc12)C(=O)N[C@@H](CCCC)C(=O)N(C)[C@H](CC(=O)O)C(=O)N[C@@H](Cc1cccc2ccccc12)C(N)=O [Example 54] (H-D[sY][Nle]GW[Nle][dNMeD][1Nal]-NH2)	0.14
CCCC[C@H](NC(=O)[C@H](Cc1c[nH]c2ccccc12)NC(=O)CNC(=O)[C@H](CC(C)C)NC(=O)[C@H](Cc1ccc(OS(=O)(=O)O)cc1)NC(=O)[C@@H](N)CC(=O)O)C(=O)N(C)[C@H](CC(=O)O)C(=O)N[C@@H](Cc1ccccc1)C(N)=O	0.21
